# tested on: T1, E. coli RNase H1 D134A (nuclease-deficient parent) (Escherichia coli, UniProt P0A7Y4 SEQ:1-155)
# T1 chain: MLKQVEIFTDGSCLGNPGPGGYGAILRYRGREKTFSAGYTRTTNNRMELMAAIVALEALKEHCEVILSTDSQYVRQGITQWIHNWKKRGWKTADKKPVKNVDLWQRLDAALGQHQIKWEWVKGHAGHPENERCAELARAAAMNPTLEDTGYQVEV
# assay procedure: filter; 50 mM NaCl, 1 mM EDTA, HEPES pH 7.0, 25 C
# cond: label: 32P
measure name: pKd
Recall that pKd is obtained by taking minus log10 of the concentration measured in molar.

binder	recorded number
RNA:DNA#2 (DNA:RNA) RNA: GGCGAACAGGACUGCGUAUGAUAGG DNA: CCTATCATACGCAGTCCTGTTCGCC	8.10

API: the following record is the query input.
Ask: May I ask what pKd has been recorded for RNA:DNA#3 (DNA:RNA) RNA: AGUUCGACGAGCAUGGAGAGGUCAG DNA: CTGACCTCTCCATGCTCGTCGAACT ?
Reply: 8.10

Where these numbers come from: patent US20040229242
